These data points were gathered from patent US9328138B2.

Assay System: HCV genotype 1b (BK) NS3 modified enzyme with a R155K mutation (Hepatitis C virus genotype 1b, UniProt P26663, R1181K)
Construct: HCV genotype 1b (BK) NS3 modified enzyme
Assay Name: HCV NS3 protease time-resolved fluorescence (TRF) assay, genotype 1b R155K
Format: biochemical
Condition Set: Ki 1b R155K, genotype 1b (BK) NS3 R155K; single value
Test Readout: pKi
# pKi is unitless: minus log10 of the molar concentration; print number only

// sample "C=C[C@@H]1C[C@]1(NC(=O)[C@@H]1C[C@@H]2CN1C(=O)[C@H](C(C)(C)C)NC(=O)O[C@@H]1C[C@H]1CCCCCc1c(nc3ccccc3c1OCCCN1CC(O)(c3ccccc3)C1)O2)C(=O)NS(=O)(=O)C1(C)CC1" , its pKi was 9.80

// sample "C=C[C@@H]1C[C@]1(NC(=O)[C@@H]1C[C@@H]2CN1C(=O)[C@H](C(C)(C)C)NC(=O)O[C@@H]1CCC[C@H]1CC/C=C/Cc1c(nc3ccccc3c1OCCCN1CCCCC1)O2)C(=O)NS(=O)(=O)C1CC1" , its pKi was 10.00

Notebook: "C=C[C@@H]1C[C@]1(NC(=O)[C@@H]1C[C@@H]2CN1C(=O)[C@H](C(C)(C)C)NC(=O)O[C@@H]1CCC[C@H]1CC/C=C/Cc1c(nc3ccccc3c1OCCCOC)O2)C(=O)NS(=O)(=O)C1(C)CC1" , pKi read as 9.82

Entry under test: "C=C[C@@H]1C[C@]1(NC(=O)[C@@H]1C[C@@H]2CN1C(=O)[C@H](C(C)(C)C)NC(=O)O[C@@H]1C[C@H]1CCCCCc1c(nc3cc(C(C)C)ccc3c1OCCCN1CCOCC1)O2)C(=O)NS(=O)(=O)C1(C)CC1" . Its pKi was 9.51
